experiment: soluble on expression in E. coli; label from the status in PepcDB or PDB records
MEASUREMENT LABEL: soluble on expression in E. coli

• MDTPFIVFWELTRACMLACKHCRAKAIRKRHPDELTTEECFNVIDQLSEFNPKPLLIITGGDPLMRDDVTEIISHAAEKGFRVAIAFSGTEKATEEKLRELKEAGVARVAVSIDGSDEEKHDSFRGVRGTFRMSMMAIENAKKAGLPFQINTTVTRENIEDLPNIARLCLELGAVMWDVFFVVPTGRAKAEMMPTPQQFE = not soluble
• MGSDKIHHHHHHMVQHLVDLLDTWLPSYQEDWVLAVLTQVEGSSYRKPGAIMLFHPMGKSLGMLSGGCLEADLRRHAQRAIQTQQVIQLTYDATDESDTSYQLGCGGIVNIMMVSLNKANNYLGLVSVHDALMRGDRGTYQLEIVADGVSSHQISGHFVEASSDAAPITLNTKTLKVTEQHKTLLQIPLRPPVHIGIFGGGLDAKPIAQMAQTMGWKVTIFDERTAYARTYDFPGCHIMKHPTPSISTDLLSGLDAAFIMSHNLQIDAKTLKTLQPLPLAYISLLGPVHRRDKVLDMAELSLKDFSGYFSAPAGLALGGELPGSVALSILSQCHGVLYNSKLTSLDSVML = not soluble
• RIKEKTISHWVAMQGIAMIQLNLLRTSQSQESTQATTMLGQKWYWRAKISPTPIKRMQQITISVSSKQAGPFREELIAFRYLP = not soluble

###

assay: soluble on expression in E. coli; label from the status in PepcDB or PDB records
MEASUREMENT LABEL: soluble on expression in E. coli

Field: example entries. Status: answers known.
- ATMPLSPLLTAVIETTLNTLINDDPALGRKLLRLKGKVISLHLRELNQSLTFVFSQRIDVMTGFEGQPDCYLALNLSILPQLREQANITQLIKQDKLELEGDIQLAQKFSELMTDCKPDVEEWLSRITGDVVAHSVVHGVKSIVGALKQQAHKHQNHLAQVLTEEWRIAPPPLEIAYFCDQVDDVKSHAARLEARLNQLLEKA: not soluble
- MILFDFKDLSAATSWYGVNDTVMGGLSRSKLTISPLGYGIFSGHVSLANGGGFASVRCEFEHVNVAEFTGIYLDLDSDRSKQYKVNLKDADTPQSTVYQAIMPAPTHQTFGLSGASAIHWQRIEIPFTNFHPQCRGKPIAGAAIDLRRLTSIGLVIGAQQSGDFALKIKSIGCYLEHHHHHH: soluble
- GSARDISSTNVTDLTVSPSKIEDGGKTTVKMTFDDKNGKIQNGDMIKVAWPTSGTVKIEGYSKTVPLTVKGEQVGQAVITPDGATITFNDKVEKLSDVSGFAEFEVQGRNLTQTNTSDDKVATITSGNKSTNVTVHKSEAGTSSVFYYKTGDMLPEDTTHVRWFLNINNEKSYVSKDITIKDQIQGGQQLDLSTLNINVTGTHSNYYSGQSAITDFEKAFPGSKITVDNTKNTIDVTIPQGYGSYNSFSINYKTKITNEQQKEFVNNSQAWYQEHGKEEVNGKSFNHTVHNINANAGIEGTVK: soluble
- GLGNVDETLEIKQLLNIYRDLQLGHFCAFYQPQKHIDSGGVVAFEALARRVIGKGLYEMPDRFFPILEKYHLIPTLTEVMVRDILTFLMTEDAVLQDITIGVNIPGKMLTDGSFYRLLLSVAEEKQAQHALHRLSVEITEHDLIADFDAAKHEIYKLKSLGIRCALDDFGTGYSGYEYLCEIPFDVVKIDGRYIQSLGKAESSTVILQSMISSIKSLSMQVIAEWVDSDQQYQILQEMGCDLVQGYLVSPA: not soluble
- MKPLLTAMFGATLATASTLASAEVAVIMNAGASAAPSQAEVANIFLGKDTSLKGLDQKGWNPTKERFYSALTNKNESQLKSYWSGLVFTGKGQPLQSVDDDAAVIAKVGSEANAIGYIDTSAVNDKVKVLFTLP: not soluble

Q) May I ask what soluble on expression in E. coli has been recorded for MTTMSGYTRSQRPRQAILGQLPRIHRADGSPIRVLLVDDEPALTNLVKMALHYEGWDVEVAHDGQEAIAKFDKVGPDVLVLDIMLPDVDGLEILRRVRESDVYTPTLFLTARDSVMDRVTGLTSGADDYMTKPFSLEELVARLRGLLRRSSHLERPADEALRVGDLTLDGASREVTRDGTPISLSSTEFELLRFLMRNPRRALSRTEILDRVWNYDFAGRTSIVDLYISYLRKKIDSDREPMIHTVRGIGYMLRPPE ?
A) not soluble

Q) Form field: reported soluble on expression in E. coli of MMQPVIRKNHMDIAWHEYTDENGADIPVTQASLTEKASIIGRVGIMFLSCGTGAWRVRSSMNTLAEIMGITCTADIGLMSIEYTCFDGEEGFTQSLCLTNTGVNTSKLNRLEHFIREFEIDGKDMSGEELHTLLDDIER
A) not soluble

###

assay: soluble on expression in E. coli; label from the status in PepcDB or PDB records
MEASUREMENT LABEL: soluble on expression in E. coli

- MEPPLWVFGYGSLIWDPGFPVARSVIARLDGWHRSFCMHSIHYRGTATDPGLVLALDAAPGGACLGVGFQVTPGAEAETLAALRKRELISNAYLERWLPVTLATGETVEAVSYVIDPDHGQYCGGLDLEAQAQIIARAAGERGPNRDYLLHTVAHLQSLGISDPDLCWLATRVRALGNDPVSAAALEHHHHHH: not soluble
- MASSVDEEALHQLYLWVDNIPLSRPKRNLSRDFSDGVLVAEVIKFYFPKMVEMHNYVPANSLQQKLSNWGHLNRKVLKRLNFSVPDDVMRKIAQCAPGVVELVLIPLRQRLEERQRRRKQGAGSLQELAPQDGSGYMDVGKVAFSISPSRLELSFCPSSCHL: not soluble
- MGHHHHHHSHMGNDKRSQIFTLSRYAGILRRCLKENAMSAQKPGLHPRNRHHSRYDLATLCQVNPELRQFLTLTPAGEQSVDFANPLAVKALNKALLAHFYAVANWDIPDGFLCPPVPGRADYIHHLADLLAEASGTIPANASILDIGVGANCIYPLIGVHEYGWRFTGSETSSQALSSAQAIISSNPGLNRAIRLRRQKESGAIFNGIIHKNEQYDATLCNPPFHDSAAAARAGSERKRRNLGLNKDDALNFGGQQQELWCEGGEVTFIKKMIEESKGFAKQVMWFTSLVSRGENLPPLYRALTDVGAVKVVKKEMAQGQKQSRFIAWTFMNDEQRRRFVNRQR: soluble
- MLSVRTPLATIADQQQLQLSPLKRLTLADKENTPPTLSSTRVLASKAARRIFQDSAELESKAPTNPSVEDEPLLRENPRRFVVFPIEYHDIWQMYKKAEASFWTAEEVDLSKDIQHWEALKPDERHFISHVLAFFAASDGIVNENLVERFSQEVQVTEARCFYGFQIAMENIHSEMYSLLIDTYIKDPKEREYLFNAIETMPCVKKKADWALRWIGDKEATYGERVVAFAAVEGIFFSGSFASIFWLKKRGLMPGLTFSNELISRDEGLHCDFACLMFKHLVHKPAEQRVREIITNAVRIEQEFLTEALPVKLIGMNCTLMKQYIEFVADRLMLELGFNKIFRVENPFDFMENISLEGKTNFFEKRVGEYQRMGVMSNSTENSFTLDADF: soluble

Lab note: next sequence to report on.
Q) Which soluble on expression in E. coli reading was recorded for the sequence MPSETLWEIAKAEVEKRGINGSEGDGAEIAEKFVFFIGSKNGGKTTIILRCLDRDEPPKPTLALEYTYGRRAKGHNTPKDIAHFWELGGGTSLLDLISIPITGDTLRTFSLVLVLDLSKPNDLWPTMENLLQATKSHVDKVIMKLGKTNAKAVSEMRQKIWNNMPKDHPQDHELIDPFPVPLVIIGSKYDVFQDFESEKRKVICKTLRFVAHYYGASLMFTSKSEALLLKIRGVINQLAFGIDKSKSICVDQNKPLFITAGLDSFGQIGSPPVPENDIGKLHAHSPMELWKKVYEKLFPPKSINTLKDIKDPARDPQYAENEVDEMRIQKDLELEQYKRSSSKSWKQIELDS ?
A) not soluble

###

assay: soluble on expression in E. coli; label from the status in PepcDB or PDB records
MEASUREMENT LABEL: soluble on expression in E. coli

Reference set, count: 5
- MGSDKIHHHHHHMQVGTIFGHKNSEGTLVSSAAIIPYESKLASIGMVIVSSQCRGLGLGREVTEACIKATLEDTTLMLIATDEGRPLYERLGFAAVERIHKHLCDDYKEPESIPSMDVTIEELRSNDFRQLVQLDEGAMGVRRSRFLKQRTTQANQSLVAKDKAGNVIGYGLSILGPIHLIIGPIVAPNHEIACLILDRLACQHKGKLRMDVPSGHHTFLQHLQRRGFTEVNTPPVMAKQSAYEPRRNGTLFAIAAQVFG: not soluble
- MLRVIVESASNIPKTKFGKPDPIVSVIFKDEKKKTKKVDNELNPVWNEILEFDLRGIPLDFSSSLGIIVKDFETIGQNKLIGTATVALKDLTGDQSRSLPYKLISLLNEKGQDTGATIDLVIGYDPP: soluble
- MKPAKVSLLRRLLHSLKHVDCNIAKRFPSTIKIVKLLMIFMVFTPISSIYAEDVYQNFEELKNNEDPSDYGVVTKETGSPVLVLAIHGGGIEGGTSEVARELSKEYSMYLFEGLKSAGNSVLHITSTHFDEPRALKMTGNHEYVISLHGYAEEDQQIEVGGTDRVRAADLVEKLQHAGFPAVLLNMDHPHAGVSPNNIANKSKTGLSIQIEMSTGFRKSLFGIFSLKSRAVTQNERFYEFTEVMFRFLKNSYLEHHHHHH: not soluble
- MGSDKIHHHHHHMTQKESIRLFEERKVRAIWDDEQEEWYFSIVDVISILTDSPNPRKYWSVLKTRLKREGSELTTNCSQLKMQAADGKKYLTDVANTEQLFRLIQSVPSPKAEPFKLWIAQVAKERLDQMQDPELSIEQAMADYKRLGYSDNWINQRLKSIEIRKDLTDEWKKRGLEEGLHFATLTDIIYKSWSDMTSKEYKRFKGLRKENLRDNMTNKELVLNMLAELSTKEISEASEPDTFSEHINVAQQGGEVARNARLELEAKTGKSVISPLNAQKIISLKKGENERDV: not soluble
- MGSDKIHHHHHHMQSRMHPRYYLSLEIFEREQKKIFRKAWLFAGLKTLLSEHNAFITRRIAGIPIVIQNFHGELRAFENVCLHRNALLQTEAVGKRPLVCAYHAWRYDAEGRVDHIPECDAVYRFSAEEKQGLKLRRFALHAVGNVLFINLDTDPLPFEEQFTPAFIDLLESSSNTYDTEVMVTTWHGKFNWKLAYENLRDANHPRFVHPKSLAKTVKFTPTVDEALFRESGLQLTDTSPSALRREMRRFSHAGADAPIPDLQHFGWHELVERWGDQDSYYNWLAFPNLHIASANGGFSFTLEHHIPIAPDRTDLEIYWFTARKKQAYAFSHQVLLAQMHGSKLVVGEDVEIMEQVQAALHADAPLPNQGAYESSNRLVERWYTTLMDGDHDI: not soluble

Q) Given the entry MSDGQLVQRRRKAEEPVTEKVDEASGDSAQSSDQEDNDKGTRLTLMEQILLLGLKDREGYTSFWNDCISSGLRGCVLIELVLRGRIQLEGGGMRRKNLLNRKVTVKSSEPTGDVILDEALRHMKETNPPETVTSWIEYLSGETWNPLKLRYQLRNVRERLAKNLVEKGVLTTDKQNFLLFEITTHPLSDGNQKTKLIKEVQEAVLGKWTNDVHRMDKKMLSLIVLAHASDVLENAFAPLSDQDYEVKQMLEILFFSGKLAHFEPKNVAMKRVRSLLDLDYDQQAEKKGNDVMWAVFEAFSK , report its measured soluble on expression in E. coli.
A) soluble

Q) Data request, read-out soluble on expression in E. coli, for MSRKNISLTESLEEYIFRNSVREPDSFLKLRKETGTLAQANMQISPEEGQFLNILTKISGAKRIIEIGTFTGYSSLCFASALPEDGKILCCDVSEEWTNVARKYWKENGLENKIFLKLGSALETLQVLIDSKSAPSWASDFAFGPSSIDLFFLDADKENYPNYYPLILKLLKPGGLLIADNVLWDGSVADLSHQEPSTVGIRKFNELVYNDSLVDVSLVPIADGVSLVRKRLEHHHHHH
A) soluble

Q) Form field: reported soluble on expression in E. coli of MSKILDVQGIVKRATELNDFGHLLEHVPYAKFIGMKVERFGDELIFKLPAKDDNIGNPILPAIHGGVIAGFMEMSAIVQLMVFMQTAKVPKVVDFSIDYLRAGLHKDSFAECRITRQGRRVANVSINCWQTNRKQLIATARAHFLIDLEHHHHHH
A) not soluble
